- assay_text: in vivo
- condition_description: dog, topical or ocular, 20 mg/kg

# molecule, AUC(0-inf) (ng·h/mL)
data = [
    ("O=C(Nc1cc(Cl)cc(Cl)c1O)c1c(O)c(Cl)cc(Cl)c1Cl [Oxyclozanide]", 55700),
]

###

- assay_text: in vivo
- condition_description: dog, iv, 2.5 mg/kg

# molecule, Vd
rows = [
    ("O=C(Nc1cc(Cl)cc(Cl)c1O)c1c(O)c(Cl)cc(Cl)c1Cl [Oxyclozanide]", "~0.6 L/kg"),
]

###

- assay_text: in vivo
- condition_description: dog, po, 5 mg/kg
parameter: bioavailability (%)

# molecule, parameter, experimental_value
measured = [
    ("O=C(Nc1cc(Cl)cc(Cl)c1O)c1c(O)c(Cl)cc(Cl)c1Cl [Oxyclozanide]", "bioavailability", 48),
]
